So I've got a bunch of compounds here, and I need their percent inhibition of viability values.
# Tested on: DERL-7 (IL-2 2.5 ng/mL);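 further: normalised to DMSO-only wells as negative and benzethonium chloride as positive control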
# ASSAY_EXPLANATION: percent inhibition of viability; higher = more inhibition
# RUN_PARAMETERS: 72 h; 1000 nM
Hi! Could you send only the number? It should be in %, unit omitted.

Ask: Reported percent inhibition of viability, compound COc1cccc2cc(-c3nc([C@H]4CC[C@H](C(=O)O)CC4)n4ncnc(N)c34)[nH]c12 [OSI-027] (max concentration tested 10000 nM) : ____
Reply: 33.3

Ask: Reported percent inhibition of viability, compound CC(=O)O[C@H]1C(=O)[C@@]2(C)[C@H]([C@H](OC(=O)c3ccccc3)[C@]3(O)C[C@H](OC(=O)[C@H](O)[C@@H](NC(=O)c4ccccc4)c4ccccc4)C(C)=C1C3(C)C)[C@]1(OC(C)=O)CO[C@@H]1C[C@@H]2O [Paclitaxel] (max concentration tested 1000 nM) : ____
Reply: 99.4

Ask: Reported percent inhibition of viability, compound O=C(Nc1ccc(-c2ccnc(Nc3ccc(N4CCOCC4)cc3)n2)cc1)C1CCCN1 (stereo not given) [XL019] (max concentration tested 10000 nM) : ____
Reply: 25.9

Ask: Reported percent inhibition of viability, compound C[C@@H](Nc1cc(F)cc(F)c1)c1cc(C(=O)N(C)C)cc2c(=O)cc(N3CCOCC3)oc12 [AZD-8186] (max concentration tested 1000 nM) : ____
Reply: 17.2

Ask: Reported percent inhibition of viability, compound Oc1ccc2c(c1)CC[C@H](c1ccccc1)[C@@H]2c1ccc(OCCN2CCCC2)cc1 [Lasofoxifene] (max concentration tested 1000 nM) : ____
Reply: 0.79

Ask: Reported percent inhibition of viability, compound CNC(=O)c1cc(COc2nnc(Nc3ccc(Cl)cc3)c3ccoc23)ccn1 [Telatinib] (max concentration tested 10000 nM) : ____
Reply: 7.55

Ask: Reported percent inhibition of viability, compound O=C1CN2Cc3c(ccc(Cl)c3Cl)N=C2N1 [Anagrelide] (max concentration tested 10000 nM) : ____
Reply: -2.15

Ask: Reported percent inhibition of viability, compound CNC(=O)c1cccc(-c2ccc3c(N4CCOC[C@@H]4C)nc(N4CCOC[C@@H]4C)nc3n2)c1 [AZD2014] (max concentration tested 10000 nM) : ____
Reply: 74.8

Ask: Reported percent inhibition of viability, compound Nc1ncn([C@@H]2O[C@H](CO)[C@@H](O)[C@H]2O)c(=O)n1 [Azacitidine] (max concentration tested 10000 nM) : ____
Reply: 24.5

Ask: Reported percent inhibition of viability, compound O=C(/C=C/c1cccc(S(=O)(=O)Nc2ccccc2)c1)NO [Belinostat] (max concentration tested 10000 nM) : ____
Reply: 100

Ask: Reported percent inhibition of viability, compound c1ccc2c(CCNc3ccc(Nc4ccncc4)cc3)c[nH]c2c1 [Serdemetan] (max concentration tested 10000 nM) : ____
Reply: 93

Ask: Reported percent inhibition of viability, compound COCC(=O)NC/C=C/c1ccc2ncnc(Nc3ccc(Oc4ccc(C)nc4)c(C)c3)c2c1 (max concentration tested 10000 nM) : ____
Reply: 9.9

Ask: Reported percent inhibition of viability, compound N#CC[C@H](C1CCCC1)n1cc(-c2ncnc3[nH]ccc23)cn1 [Ruxolitinib] (max concentration tested 10000 nM) : ____
Reply: 101

Ask: Reported percent inhibition of viability, compound Cc1ccc(-c2cc(C(F)(F)F)nn2-c2ccc(S(N)(=O)=O)cc2)cc1 [Celecoxib] (max concentration tested 10000 nM) : ____
Reply: 0.77

Ask: Reported percent inhibition of viability, compound CCc1cncnc1N1CCN(Cc2nc3ccc(C(F)(F)F)cc3[nH]2)CC1 (max concentration tested 10000 nM) : ____
Reply: -1.27

src = the supplement of paper PMC5908809
